- study target: a4b7 integrin interaction with MadCAM-1 (Homo sapiens, UniProt P13612+P26010)
- Construct: capture of a4b7 integrin expressing cells, RPMI8866; endogenous in cells
- Sequence (P13612 34-1032): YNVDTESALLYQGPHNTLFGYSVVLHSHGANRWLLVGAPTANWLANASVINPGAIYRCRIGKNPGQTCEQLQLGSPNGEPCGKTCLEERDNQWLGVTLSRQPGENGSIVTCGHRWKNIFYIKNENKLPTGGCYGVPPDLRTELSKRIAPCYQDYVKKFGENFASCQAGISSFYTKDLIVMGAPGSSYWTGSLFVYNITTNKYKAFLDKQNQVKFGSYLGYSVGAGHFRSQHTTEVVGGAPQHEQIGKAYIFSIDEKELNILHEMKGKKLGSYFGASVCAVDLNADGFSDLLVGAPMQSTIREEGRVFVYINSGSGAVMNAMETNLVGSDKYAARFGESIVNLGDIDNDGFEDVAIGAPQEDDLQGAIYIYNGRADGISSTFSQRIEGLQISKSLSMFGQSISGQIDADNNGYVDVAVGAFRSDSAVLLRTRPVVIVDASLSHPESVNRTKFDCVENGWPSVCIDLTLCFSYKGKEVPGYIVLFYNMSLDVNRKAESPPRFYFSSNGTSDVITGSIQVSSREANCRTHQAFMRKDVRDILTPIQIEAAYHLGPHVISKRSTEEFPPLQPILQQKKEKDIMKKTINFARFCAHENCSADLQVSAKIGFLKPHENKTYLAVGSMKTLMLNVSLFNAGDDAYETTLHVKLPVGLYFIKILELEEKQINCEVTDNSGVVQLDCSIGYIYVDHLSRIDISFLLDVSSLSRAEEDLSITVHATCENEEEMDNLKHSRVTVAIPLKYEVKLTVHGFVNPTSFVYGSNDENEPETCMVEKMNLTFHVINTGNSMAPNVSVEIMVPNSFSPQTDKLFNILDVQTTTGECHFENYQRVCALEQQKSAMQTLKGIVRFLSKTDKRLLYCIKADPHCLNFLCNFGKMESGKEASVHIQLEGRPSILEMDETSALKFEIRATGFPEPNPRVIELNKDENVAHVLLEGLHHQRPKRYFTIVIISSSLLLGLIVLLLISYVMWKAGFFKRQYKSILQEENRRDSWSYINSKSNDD
- Sequence (P26010 20-798): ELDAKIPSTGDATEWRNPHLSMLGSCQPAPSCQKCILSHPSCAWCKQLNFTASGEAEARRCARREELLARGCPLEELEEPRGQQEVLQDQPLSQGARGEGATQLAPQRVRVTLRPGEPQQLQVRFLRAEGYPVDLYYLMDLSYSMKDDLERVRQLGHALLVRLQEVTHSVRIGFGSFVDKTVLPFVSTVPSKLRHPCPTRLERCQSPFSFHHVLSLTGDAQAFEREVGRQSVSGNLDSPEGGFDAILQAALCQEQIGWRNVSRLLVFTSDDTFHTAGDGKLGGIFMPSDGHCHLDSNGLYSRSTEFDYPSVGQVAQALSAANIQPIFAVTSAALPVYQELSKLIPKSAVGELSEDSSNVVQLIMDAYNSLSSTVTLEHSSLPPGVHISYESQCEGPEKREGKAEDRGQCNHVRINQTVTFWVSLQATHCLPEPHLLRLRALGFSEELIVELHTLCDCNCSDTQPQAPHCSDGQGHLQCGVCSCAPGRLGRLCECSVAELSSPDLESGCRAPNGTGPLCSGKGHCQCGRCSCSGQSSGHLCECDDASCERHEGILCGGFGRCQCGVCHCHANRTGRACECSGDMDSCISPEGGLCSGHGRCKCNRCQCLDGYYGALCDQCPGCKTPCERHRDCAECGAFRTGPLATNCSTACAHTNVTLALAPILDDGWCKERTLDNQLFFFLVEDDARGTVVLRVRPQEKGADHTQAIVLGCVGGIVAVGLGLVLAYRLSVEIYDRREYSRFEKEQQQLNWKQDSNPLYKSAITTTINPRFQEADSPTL
- assay summary: a4b7 Cell Capture Assay (RPMI8866 cells on MAdCAM-1 Fc coated plates)
- test context: 50% human serum, 1 mM MgCl2, 1 hour incubation, CellTiter-Glo luminescence, read-out: a4B7 cell capture assay RMPI8866-MadCAM EC50
Consider the following molecules; for each one, report its pEC50.
Answers are plain numbers, as −log10 of the molar value.

Completed entries (count: 2):
molecule	pEC50
Cc1cc2cc(c1F)[C@H](CC(=O)O)NC(=O)[C@@H](n1cc(CCN3CC(F)C3)c(C(F)(F)F)cc1=O)c1cc(ccc1F)Oc1ccc(F)c(C)c1-2 (relative stereo) [Example 30]	8.59
Cc1cccc2c1-c1cc(c(F)c(C(F)(F)F)c1)[C@H](CC(=O)O)NC(=O)[C@@H](n1cc(CCN3CC(F)C3)c(C(F)(F)F)cc1=O)c1cc(cc(C(F)(F)F)c1)O2 (relative stereo) [Example 14]	7.42

Field: next molecule
Return pEC50 measured with a4b7 integrin interaction with MadCAM-1 (Homo sapiens, UniProt P13612+P26010) given this molecule: Cc1cccc2c1-c1cc(c(C)s1)[C@H](CC(=O)O)NC(=O)[C@@H](n1cc(CCN3CC(F)C3)c(C(F)(F)F)cc1=O)c1cc(ccc1F)O2 (single isomer, unassigned) [Example 72] 7.80

----------
Consider the following compounds; for each one, report its log10 of EC50.
- study target: a4b7 integrin interaction with MadCAM-1 (Homo sapiens, UniProt P13612+P26010)
- Construct: capture of a4b7 integrin expressing cells, RPMI8866; endogenous in cells
- assay summary: a4b7 Cell Capture Assay (RPMI8866 cells on MAdCAM-1 Fc coated plates)
- test context: 50% human serum, 1 mM MgCl2, 1 hour incubation, CellTiter-Glo luminescence, read-out: a4B7 cell capture assay RMPI8866-MadCAM EC50
Log scale reminder: EC50 in nM, then log10 taken.

Completed entries (count: 3):
compound	study target	log10 of EC50
Cc1cc2cc(c1F)[C@H](CC(=O)O)NC(=O)[C@@H](n1cc(CCN3CC(F)C3)c(C(F)(F)F)cc1=O)c1cc(ccc1F)COc1cc(Cl)cc(C)c1-2 (single isomer, unassigned) [Example 47]	a4b7 integrin interaction with MadCAM-1 (Homo sapiens, UniProt P13612+P26010)	1.62
Cc1cc2cc(c1F)[C@H](CC(=O)O)NC(=O)[C@@H](n1cc(CCN3CC(F)C3)c(C(F)(F)F)cc1=O)c1cc(ccc1F)Oc1cc(Cl)cc(C)c1-2 (relative stereo) [Example 55]	a4b7 integrin interaction with MadCAM-1 (Homo sapiens, UniProt P13612+P26010)	0.60
Cc1cc(C)c2c(c1)Oc1cccc(c1)[C@H](n1cc(CCCN(C)C)c(C(F)(F)F)cc1=O)C(=O)N[C@@H](CC(=O)O)c1cn-2nc1C(F)(F)F (relative stereo) [Example 18]	a4b7 integrin interaction with MadCAM-1 (Homo sapiens, UniProt P13612+P26010)	0.96

Take each entry in turn and give its log10 of EC50.
1. Cc1cc2cc(c1F)[C@H](CC(=O)O)NC(=O)[C@@H](n1cc(CCN3CC(F)C3)c(C(F)(F)F)cc1=O)c1cc(ccc1F)Oc1cccc(C)c1-2 (relative stereo) [Example 7]
2. Cc1cc(C2CC2)cc2c1-c1cc(c(F)c(C(F)(F)F)c1)[C@H](CC(=O)O)NC(=O)[C@@H](n1cc(CCN3CC(F)C3)c(C(F)(F)F)cc1=O)c1cccc(c1)O2 (relative stereo) [Example 10]

[0.04, 2.56]

Take each entry in turn and give its log10 of EC50.
1. Cc1cc2c(F)c(c1F)[C@H](CC(=O)O)NC(=O)[C@@H](n1cc(CCN3CC(F)C3)c(C(F)(F)F)cc1=O)c1cc(ccc1F)Oc1cccc(C)c1-2 (single isomer, unassigned) [Example 77]
2. Cc1cc2cc(c1F)[C@H](CC(=O)O)NC(=O)[C@@H](n1c(=O)c3ccncc3n(C)c1=O)c1cc(ccc1F)Oc1cccc(C)c1-2 (single isomer, unassigned) [Example 69]
3. Cc1cc2cc(c1F)[C@H](CC(=O)O)NC(=O)[C@@H](n1cc(CCN3CC(F)C3)c(C(F)(F)F)cc1=O)c1cc(cc(Cl)c1F)Oc1cccc(C)c1-2 [Example 38]

1. 1.18
2. -0.42
3. 0.11

----------
- study target: a4b7 integrin interaction with MadCAM-1 (Homo sapiens, UniProt P13612+P26010)
- Construct: capture of a4b7 integrin expressing cells, RPMI8866; endogenous in cells; host or cells: RPMI8866
- assay summary: a4b7 Cell Capture Assay (RPMI8866 cells on MAdCAM-1 Fc coated plates)
- Type: cell-based
- test context: 50% human serum, 1 mM MgCl2, 1 hour incubation, CellTiter-Glo luminescence, read-out: a4B7 cell capture assay RMPI8866-MadCAM EC50
measured endpoint: pEC50
One number for each entry, as −log10 of the molar value.

compound	pEC50
Cc1cc2cc(c1F)[C@H](CC(=O)O)NC(=O)[C@@H](n1cc(CCN3CCC(F)(F)CC3)c(C(F)(F)F)cc1=O)c1cc(ccc1F)Oc1cccc(C)c1-2 (single isomer, unassigned) [Example 63]	8.00
Cc1cc(Cl)cc2c1-c1cc(c(F)c(C(F)(F)F)c1)[C@H](CC(=O)O)NC(=O)[C@@H](n1cc(CCN3CC(F)C3)c(C(F)(F)F)cc1=O)c1cccc(c1)O2 (single isomer, unassigned) [Example 11]	6.47

Field: next compound
Report pEC50 for Cc1cc2cc(c1F)[C@H](CC(=O)O)NC(=O)[C@@H](n1cc(CCN3CC(F)C3)c(C(F)(F)F)cc1=O)c1cc(ccc1Cl)Oc1cccc(C)c1-2 (relative stereo) [Example 59] please. 8.92

----------
- study target: a4b7 integrin interaction with MadCAM-1 (Homo sapiens, UniProt P13612+P26010)
- Construct: capture of a4b7 integrin expressing cells, RPMI8866; endogenous in cells
- assay summary: a4b7 Cell Capture Assay (RPMI8866 cells on MAdCAM-1 Fc coated plates)
- test context: 50% human serum, 1 mM MgCl2, 1 hour incubation, CellTiter-Glo luminescence, read-out: a4B7 cell capture assay RMPI8866-MadCAM EC50
I'd appreciate it if you marked entries 1 when EC50 is lower than 10 nM and -1 when it is not.

Illustrative cases are given below, each with its answer.
compound	study target	cat
Cc1cc2cc(c1F)[C@H](CC(=O)O)NC(=O)[C@@H](n1ccc(C(F)(F)F)cc1=O)c1cc(ccc1F)Oc1cccc(C)c1-2 (single isomer, unassigned) [Example 42]	a4b7 integrin interaction with MadCAM-1 (Homo sapiens, UniProt P13612+P26010)	-1
Cc1ccc2c(c1C)-c1cc(C)c(F)c(c1)[C@H](CC(=O)O)NC(=O)[C@@H](n1cc(CCN3CC(F)C3)c(C(F)(F)F)cc1=O)c1cc(ccc1F)O2 (relative stereo) [Example 33]	a4b7 integrin interaction with MadCAM-1 (Homo sapiens, UniProt P13612+P26010)	-1
Cc1cc(C)c2c(c1)Oc1ccc(F)c(c1)[C@H](n1cc(CCN3CC(F)C3)c(C(F)(F)F)cc1=O)C(=O)N[C@@H](CC(=O)O)c1cc-2cc(C)c1F (relative stereo) [Example 27]	a4b7 integrin interaction with MadCAM-1 (Homo sapiens, UniProt P13612+P26010)	1
Cc1cc2cc(c1F)[C@H](CC(=O)O)NC(=O)[C@@H](n1cc(CCN3CC(F)C3)c(C(F)(F)F)cc1=O)c1cc(Cl)cc(c1)Oc1ccc(F)c(C)c1-2 (relative stereo) [Example 34]	a4b7 integrin interaction with MadCAM-1 (Homo sapiens, UniProt P13612+P26010)	-1
Cc1ccc2c(c1C)-c1cc(C)c(F)c(c1)[C@H](CC(=O)O)NC(=O)[C@@H](n1cc(CCN3CC(F)C3)c(C(F)(F)F)cc1=O)c1cc(ccc1F)CO2 (relative stereo) [Example 51]	a4b7 integrin interaction with MadCAM-1 (Homo sapiens, UniProt P13612+P26010)	-1

Hello, is EC50 of the following compound strictly smaller than 10 nM? Cc1cc2cc(c1F)[C@H](CC(=O)O)NC(=O)[C@@H](n1cc(CCN3CC(F)C3)c(C(F)(F)F)cc1=O)c1cc(ccc1F)Oc1cc(C#N)cc(C)c1-2 (single isomer, unassigned) [Example 46] 1

Hello, is EC50 of the following compound strictly smaller than 10 nM? O=C(O)C[C@@H]1NC(=O)[C@@H](n2cc(CCN3CC(F)C3)c(C(F)(F)F)cc2=O)c2cccc(c2)Oc2cccc(C(F)(F)F)c2-c2cc1c(F)c(C(F)(F)F)c2 (relative stereo) [Example 13] -1

Hello, is EC50 of the following compound strictly smaller than 10 nM? Cc1cccc2c1-c1cc(C3CC3)c(F)c(c1)[C@H](CC(=O)O)NC(=O)[C@@H](n1ccc(C(F)(F)F)cc1=O)c1cc(ccc1F)O2 (single isomer, unassigned) [Example 73] -1

Hello, is EC50 of the following compound strictly smaller than 10 nM? Cc1cc2cc(c1F)[C@H](CC(=O)O)NC(=O)[C@@H](n1cc(CCN3CC(F)(F)C3)c(C(F)(F)F)cc1=O)c1cc(ccc1F)Oc1cccc(C)c1-2 (single isomer, unassigned) [Example 45] 1

Hello, is EC50 of the following compound strictly smaller than 10 nM? Cc1cc2cc(c1F)[C@H](CC(=O)O)NC(=O)[C@@H](n1ccc(C(F)(F)F)c(Cl)c1=O)c1cc(ccc1F)COc1cccc(C)c1-2 (relative stereo) [Example 79] -1
